SYSTEM_NAME: UniProt P0DMS8
Sequence (P0DMS8 whole entry): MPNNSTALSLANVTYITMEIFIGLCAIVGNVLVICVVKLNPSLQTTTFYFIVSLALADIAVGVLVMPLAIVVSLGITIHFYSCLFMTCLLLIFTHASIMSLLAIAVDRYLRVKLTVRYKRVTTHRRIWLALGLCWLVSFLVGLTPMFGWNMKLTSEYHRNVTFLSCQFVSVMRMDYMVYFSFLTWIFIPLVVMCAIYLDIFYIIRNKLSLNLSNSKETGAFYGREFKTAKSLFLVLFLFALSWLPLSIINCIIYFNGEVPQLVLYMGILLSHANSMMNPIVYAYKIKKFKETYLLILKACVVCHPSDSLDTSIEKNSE
PROTOCOL_DESCRIPTION: Radioligand competition binding (125I-ABA) to human A3 AR in HEK 293 cell membranes
CONDITION_INFO: selectivity ratio A3 over A2A
Label t when A3/A2A < 6; otherwise f.

Previously resolved entries follow.
{"MOLECULE": "CCNC(=O)[C@H]1O[C@@H](n2cnc3c(N)nc(C#CCC4CCC(CC)CC4)nc32)C(O)C1O (stereo in doubt)", "SYSTEM_NAME": "UniProt P0DMS8", "ASSIGNED_CLASS": "f"}
{"MOLECULE": "CCNC(=O)[C@H]1O[C@@H](n2cnc3c(N)nc(C#CCC4CCC(C(=O)OCCNC(=O)OC(C)(C)C)CC4)nc32)C(O)C1O (stereo in doubt)", "SYSTEM_NAME": "UniProt P0DMS8", "ASSIGNED_CLASS": "f"}
{"MOLECULE": "CCNC(=O)[C@H]1O[C@@H](n2cnc3c(N)nc(C#CCC4CCC(C(C)=O)CC4)nc32)C(O)C1O (stereo in doubt)", "SYSTEM_NAME": "UniProt P0DMS8", "ASSIGNED_CLASS": "f"}

Field: below-cutoff. Rule: recorded A3/A2A strictly less than 6. Subject: COC(=O)C1CCC(CC#Cc2nc(N)c3ncn(C4OC(CO)C(O)C4O)c3n2)CC1 (centres unmarked)
f

Field: below-cutoff. Rule: recorded A3/A2A strictly less than 6. Subject: CCNC(=O)[C@H]1O[C@@H](n2cnc3c(N)nc(C#CCN4CCC(C(=O)OCC)CC4)nc32)C(O)C1O (stereo in doubt)
t

Field: below-cutoff. Rule: recorded A3/A2A strictly less than 6. Subject: CCNC(=O)[C@H]1O[C@@H](n2cnc3c(N)nc(C#CC4(O)CCCCC4C)nc32)C(O)C1O (single isomer, unassigned) [JR-3177A]
t

Field: below-cutoff. Rule: recorded A3/A2A strictly less than 6. Subject: CCNC(=O)C1OC(n2cnc3c(N)nc(C#CC(O)C4CCCCC4)nc32)C(O)C1O (single isomer, unassigned) [JR-3159B]
f

Field: below-cutoff. Rule: recorded A3/A2A strictly less than 6. Subject: CCNC(=O)[C@H]1O[C@@H](n2cnc3c(N)nc(C#C[C@]4(O)CCC[C@@H](C)C4)nc32)C(O)C1O (stereo in doubt)
t
